test.summary: soluble on expression in E. coli; label from the status in PepcDB or PDB records
measured.property: soluble on expression in E. coli

# sequence.record, measured.property, readout.value
data = [
    ("MKIFNNVHCRIRNTISCSNYIFSAVWNFLISVFINKTNFNNSVYCRIFKVSIGLRKSISSTTRTRWVPVVFICSRSTNRWTGARSVNPIRNLIYIKLSILNKVRPIFRLEHHHHHH", "soluble on expression in E. coli", "not soluble"),
    ("MGSDKIHHHHHHMIVLFVDFDYFYAQVEEVLNPSLKGKPVVVCVFSGRFEDSGAVATANYEARKFGVKAGIPIVEAKKILPNAVYLPMRKEVYQQVSSRIMNLLREYSEKIEIASIDEAYLDISDKVRDYREAYNLGLEIKNKILEKEKITVTVGISKNKVFAKIAADMAKPNGIKVIDDEEVKRLIRELDIADVPGIGNITAEKLKKLGINKLVDTLSIEFDKLKGMIGEAKAKYLISLARDEYNEPIRTRVRKSIGRIVTMKRNSRNLEEIKPYLFRAIEESYYKLDKRIPKAIHVVAVTEDLDIVSRGRTFPHGISKETAYSESVKLLQKILEEDERKIRRIGVRFSKFIEAIGLDKFFDT", "soluble on expression in E. coli", "not soluble"),
]
